Value source: ChEMBL document CHEMBL5550210

For each record, write down the corresponding half-life.
Experiment: Metabolic stability in mouse liver microsomes assessed as half life
Type: ADME, Microsome
Give bare numbers, in h.

CCCCNC(=O)/C=C/c1ccc(COC(Cn2ccnc2)c2ccc(Cl)cc2Cl)cc1 (stereo not drawn) ... 1

The recorded half-life for O=C(/C=C/c1ccc(COC(Cn2ccnc2)c2ccc(Cl)cc2Cl)cc1)Nc1ccc(Cl)cc1Cl (stereo not drawn) is 0.493

----------
Kindly supply the reported MIC values for the records listed here.
Test system: Candida albicans
Assay: Antifungal activity against fluconazole-resistant Candida albicans 17 assessed as inhibition of fungal growth by CLSI based microdilution method
Type: functional
Numbers only, in µg/mL.

O=C(/C=C/c1ccc(COC(Cn2ccnc2)c2ccc(Cl)cc2Cl)cc1)Nc1ccc(F)cc1 (stereo not given) ... 128
CCCNC(=O)/C=C/c1ccc(COC(Cn2ccnc2)c2ccc(Cl)cc2Cl)cc1 (stereo not given) ... 32
CNC(=O)/C=C/c1ccc(COC(Cn2ccnc2)c2ccc(Cl)cc2Cl)cc1 (stereo not given) ... 128
Cc1ccccc1NC(=O)/C=C/c1ccc(COC(Cn2ccnc2)c2ccc(Cl)cc2Cl)cc1 (stereo not given) ... 128
CC(C)NC(=O)/C=C/c1ccc(COC(Cn2ccnc2)c2ccc(Cl)cc2Cl)cc1 (stereo not given) ... 16
O=C(/C=C/c1ccc(COC(Cn2ccnc2)c2ccc(Cl)cc2Cl)cc1)Nc1ccc(C(F)(F)F)cc1 (stereo not given) ... 128

Below are 4 molecules. Give each one its MIC.
1. Cc1ccc(NC(=O)/C=C/c2ccc(COC(Cn3ccnc3)c3ccc(Cl)cc3Cl)cc2)cc1 (stereo not given)
2. O=C(/C=C/c1ccc(COC(Cn2ccnc2)c2ccc(Cl)cc2Cl)cc1)NC1CC1 (stereo not given)
3. O=C(/C=C/c1ccc(COC(Cn2ccnc2)c2ccc(Cl)cc2Cl)cc1)Nc1ccc(Br)cc1 (stereo not given)
4. CCCCNC(=O)/C=C/c1ccc(COC(Cn2ccnc2)c2ccc(Cl)cc2Cl)cc1 (stereo not given)

Completion:
1
32
32
4
